Assay: Selectivity for HCV NS3 protease over human neutrophil elastase
Assay endpoint: Ratio

| Molecule smiles | Assay endpoint | Data value |
| --- | --- | --- |
| C=CCNC(=O)C(=O)[C@@H]1CCCCCCCOC[C@H](NC(=O)N[C@H](CN2C(=O)CC(C)(C)CC2=O)C(C)(C)C)C(=O)N2C[C@H]3[C@@H]([C@H]2C(=O)N1)C3(C)C | Ratio | 300 |
| C=CCNC(=O)C(=O)[C@@H]1CCCCCCCO[C@@H](C)[C@H](NC(=O)N[C@H](CN2CCC(C)(C)CC2=O)C(C)(C)C)C(=O)N2C[C@H]3[C@@H]([C@H]2C(=O)N1)C3(C)C | Ratio | 1300 |
| C=CCNC(=O)C(=O)[C@@H]1CCCCCCCOC[C@H](NC(=O)N[C@H](C(=O)C2CC2)C2CCCCC2)C(=O)N2C[C@H]3[C@@H]([C@H]2C(=O)N1)C3(C)C | Ratio | 9 |
